target: Sodium channel alpha subunits; brain (Types I, II, III) (Rattus norvegicus) (UniProt P04775+P04774+P08104); test: Displacement of [3H]BTX-B from rat cerebral cortex voltage-gated sodium channel, 0.5 hr after 500 uM; type: tissue-based
Sequence (P04775 whole entry, looked up, other chains not shown): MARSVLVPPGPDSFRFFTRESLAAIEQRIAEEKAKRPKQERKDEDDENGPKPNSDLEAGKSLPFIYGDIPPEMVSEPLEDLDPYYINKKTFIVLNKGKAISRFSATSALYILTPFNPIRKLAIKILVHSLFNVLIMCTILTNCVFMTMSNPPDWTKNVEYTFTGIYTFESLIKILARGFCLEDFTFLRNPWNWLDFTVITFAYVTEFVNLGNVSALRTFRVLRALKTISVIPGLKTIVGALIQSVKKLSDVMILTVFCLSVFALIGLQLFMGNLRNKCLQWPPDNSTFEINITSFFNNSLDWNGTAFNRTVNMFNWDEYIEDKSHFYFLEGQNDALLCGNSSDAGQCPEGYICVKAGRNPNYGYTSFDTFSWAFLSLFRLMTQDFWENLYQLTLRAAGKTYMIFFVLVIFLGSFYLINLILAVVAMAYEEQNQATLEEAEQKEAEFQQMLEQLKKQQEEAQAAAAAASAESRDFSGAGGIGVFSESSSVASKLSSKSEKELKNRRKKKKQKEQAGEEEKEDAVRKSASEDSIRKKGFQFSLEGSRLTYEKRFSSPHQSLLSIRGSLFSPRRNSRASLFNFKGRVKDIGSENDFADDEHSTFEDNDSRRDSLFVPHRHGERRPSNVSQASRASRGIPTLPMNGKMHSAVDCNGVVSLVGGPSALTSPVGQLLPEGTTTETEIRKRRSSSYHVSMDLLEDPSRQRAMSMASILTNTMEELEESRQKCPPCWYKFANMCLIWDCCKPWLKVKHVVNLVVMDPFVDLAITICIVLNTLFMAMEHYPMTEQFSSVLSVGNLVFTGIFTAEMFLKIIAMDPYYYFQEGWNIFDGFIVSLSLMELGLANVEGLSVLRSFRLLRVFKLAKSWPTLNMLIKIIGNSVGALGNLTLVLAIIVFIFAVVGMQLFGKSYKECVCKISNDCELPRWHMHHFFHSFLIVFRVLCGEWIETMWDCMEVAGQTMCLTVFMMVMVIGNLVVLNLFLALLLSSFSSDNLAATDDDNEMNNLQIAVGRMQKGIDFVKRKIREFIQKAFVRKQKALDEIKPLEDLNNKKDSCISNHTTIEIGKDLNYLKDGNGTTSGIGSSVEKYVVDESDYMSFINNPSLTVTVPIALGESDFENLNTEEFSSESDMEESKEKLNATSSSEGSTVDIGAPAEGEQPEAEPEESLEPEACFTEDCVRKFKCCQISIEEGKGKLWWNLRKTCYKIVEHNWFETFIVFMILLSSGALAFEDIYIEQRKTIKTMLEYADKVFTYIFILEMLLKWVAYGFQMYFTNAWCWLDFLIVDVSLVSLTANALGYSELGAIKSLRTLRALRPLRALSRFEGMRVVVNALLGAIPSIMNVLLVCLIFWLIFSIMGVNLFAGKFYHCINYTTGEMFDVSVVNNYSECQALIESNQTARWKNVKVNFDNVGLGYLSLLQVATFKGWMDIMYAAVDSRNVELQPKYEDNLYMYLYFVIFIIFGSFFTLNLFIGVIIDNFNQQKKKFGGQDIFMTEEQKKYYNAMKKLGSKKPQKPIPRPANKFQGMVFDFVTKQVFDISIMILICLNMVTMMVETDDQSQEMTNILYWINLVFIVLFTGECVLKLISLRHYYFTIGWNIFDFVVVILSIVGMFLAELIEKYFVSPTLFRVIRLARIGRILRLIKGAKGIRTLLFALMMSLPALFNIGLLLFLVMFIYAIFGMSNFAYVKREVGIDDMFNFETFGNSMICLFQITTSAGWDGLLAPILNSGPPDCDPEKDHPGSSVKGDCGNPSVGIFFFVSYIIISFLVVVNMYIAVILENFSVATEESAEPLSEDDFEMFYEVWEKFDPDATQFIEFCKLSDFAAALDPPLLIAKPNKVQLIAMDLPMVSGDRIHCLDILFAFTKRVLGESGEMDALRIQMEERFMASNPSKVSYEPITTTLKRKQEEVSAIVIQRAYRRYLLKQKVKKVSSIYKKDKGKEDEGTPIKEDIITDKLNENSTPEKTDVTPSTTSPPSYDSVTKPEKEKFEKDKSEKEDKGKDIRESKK
Sequence (P08104 whole entry, looked up, other chains not shown): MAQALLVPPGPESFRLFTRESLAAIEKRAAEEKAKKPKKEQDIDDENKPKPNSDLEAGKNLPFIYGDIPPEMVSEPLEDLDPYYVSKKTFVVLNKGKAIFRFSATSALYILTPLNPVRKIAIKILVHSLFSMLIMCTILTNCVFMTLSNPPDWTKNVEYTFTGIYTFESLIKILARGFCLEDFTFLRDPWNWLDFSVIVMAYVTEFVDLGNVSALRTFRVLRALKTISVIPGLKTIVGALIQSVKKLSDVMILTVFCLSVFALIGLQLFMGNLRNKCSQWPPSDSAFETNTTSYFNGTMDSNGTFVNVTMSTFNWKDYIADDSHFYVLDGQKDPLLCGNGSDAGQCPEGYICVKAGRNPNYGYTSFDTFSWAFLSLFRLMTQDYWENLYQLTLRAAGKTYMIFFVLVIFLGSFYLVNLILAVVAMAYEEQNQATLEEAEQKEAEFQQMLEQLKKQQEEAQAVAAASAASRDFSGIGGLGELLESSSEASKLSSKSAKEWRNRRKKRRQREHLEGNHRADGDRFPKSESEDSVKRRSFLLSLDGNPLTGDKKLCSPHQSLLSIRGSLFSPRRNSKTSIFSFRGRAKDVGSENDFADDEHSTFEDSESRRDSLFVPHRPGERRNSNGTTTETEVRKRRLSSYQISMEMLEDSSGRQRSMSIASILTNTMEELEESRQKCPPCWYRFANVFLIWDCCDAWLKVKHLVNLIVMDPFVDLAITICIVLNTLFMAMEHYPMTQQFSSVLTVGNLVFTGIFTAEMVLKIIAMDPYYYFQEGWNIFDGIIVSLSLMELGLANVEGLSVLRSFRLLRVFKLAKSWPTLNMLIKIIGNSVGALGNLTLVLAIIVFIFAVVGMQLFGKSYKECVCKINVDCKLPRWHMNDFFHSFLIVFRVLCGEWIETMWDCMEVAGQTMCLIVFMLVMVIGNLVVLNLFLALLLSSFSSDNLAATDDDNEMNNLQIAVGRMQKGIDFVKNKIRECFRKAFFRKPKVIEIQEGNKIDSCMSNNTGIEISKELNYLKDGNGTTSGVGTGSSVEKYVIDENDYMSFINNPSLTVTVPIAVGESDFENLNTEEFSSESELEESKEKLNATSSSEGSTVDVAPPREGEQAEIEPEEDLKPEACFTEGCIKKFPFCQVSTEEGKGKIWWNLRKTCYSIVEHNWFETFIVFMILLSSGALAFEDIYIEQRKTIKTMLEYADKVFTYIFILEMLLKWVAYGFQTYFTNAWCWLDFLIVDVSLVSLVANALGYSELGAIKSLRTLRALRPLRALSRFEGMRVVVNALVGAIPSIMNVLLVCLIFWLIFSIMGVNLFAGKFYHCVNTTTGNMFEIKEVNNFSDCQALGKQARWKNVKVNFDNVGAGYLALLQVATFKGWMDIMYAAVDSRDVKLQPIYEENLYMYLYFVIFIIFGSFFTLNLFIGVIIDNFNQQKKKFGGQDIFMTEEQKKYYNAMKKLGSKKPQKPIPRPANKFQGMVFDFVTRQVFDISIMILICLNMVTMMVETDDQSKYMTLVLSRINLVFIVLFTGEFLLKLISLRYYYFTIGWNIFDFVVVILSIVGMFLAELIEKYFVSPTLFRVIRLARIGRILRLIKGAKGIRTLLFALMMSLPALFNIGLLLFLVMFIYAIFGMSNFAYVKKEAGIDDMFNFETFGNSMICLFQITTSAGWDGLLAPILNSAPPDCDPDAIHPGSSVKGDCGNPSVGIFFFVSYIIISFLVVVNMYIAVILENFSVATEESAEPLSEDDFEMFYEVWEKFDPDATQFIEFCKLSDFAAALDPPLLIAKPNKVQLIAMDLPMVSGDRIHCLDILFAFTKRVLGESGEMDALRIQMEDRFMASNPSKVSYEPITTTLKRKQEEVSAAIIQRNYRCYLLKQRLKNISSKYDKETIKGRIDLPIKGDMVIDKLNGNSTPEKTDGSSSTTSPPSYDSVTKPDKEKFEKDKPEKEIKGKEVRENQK

| Compound | Units Symbol | inhibition |
| --- | --- | --- |
| CCC1(c2ccccc2)OC(=O)N(C)C1=O (racemic) | % | 50 |
| CC[C@@]1(c2ccccc2)OC(=O)N(C)C1=O | % | 45 |
| CCC1(c2ccccc2)OC(=O)NC1=O (racemic) | % | 44 |
| CC[C@]1(c2ccccc2)OC(=O)N(C)C1=O | % | 49 |
| CC[C@@]1(c2ccccc2)OC(=O)NC1=O | % | 36 |
| CC[C@]1(c2ccccc2)OC(=O)NC1=O | % | 46 |

###

Property: ED50; scope: individual molecules
test system: Mus musculus; experiment: Anticonvulsant activity of the compound, 0.5 hr after administration in maximal electroshock mice model; assay type: functional
Value Kind: ED50 (mg/kg)

| Molecule | Assayed Target | Observed Measurement |
| --- | --- | --- |
| O=C1O[C@]2(c3ccccc3)CCCCCN1C2=O | Mus musculus | 82 |
| O=C1O[C@@]2(c3ccccc3)CCCCCN1C2=O | Mus musculus | 45 |
| O=C1OC2(c3ccccc3)CCCCCN1C2=O (racemic) | Mus musculus | 66 |
| CC[C@]1(c2ccccc2)OC(=O)N(C)C1=O | Mus musculus | 122 |
| CC[C@@]1(c2ccccc2)OC(=O)NC1=O | Mus musculus | 141 |
| CC[C@@]1(c2ccccc2)OC(=O)N(C)C1=O | Mus musculus | 188 |
| CC[C@]1(c2ccccc2)OC(=O)NC1=O | Mus musculus | 91 |
| CCC1(c2ccccc2)OC(=O)N(C)C1=O (racemic) | Mus musculus | 124 |
